- Test system: Toxoplasma gondii RH 2F1 tachyzoites (intracellular in HFF)
- experiment: parasite survival relative to DMSO control; higher = less antiparasitic activity, active = 20 or less
- details: 1 µM; 72 h
Please reply with one of these outcomes: active, inactive

Worked examples, 8 molecules total:
# molecule, group label
records = [
    ("Cc1nc2ccc(Cl)cc2c(-c2ccccc2)c1CC(=O)O", "inactive"),
    ("Cc1nc(N(C)C(=O)Cc2ccc(-c3ccccn3)cc2)sc1S(N)(=O)=O", "inactive"),
    ("C[C@@H](O)[C@H](N)C(=O)NS(=O)(=O)c1cccc(-c2ccc3[nH]ncc3c2)c1", "inactive"),
    ("Cc1cc(-c2ccccc2)c(C(=O)C(=O)Nc2ccc(N3CCN(c4ncc(F)cn4)CC3)cc2)n1C", "active"),
    ("CCC(C)n1ncn(-c2ccc(N3CCN(c4ccc(OCC5COC(Cn6cncn6)(c6ccc(Cl)cc6Cl)O5)cc4)CC3)cc2)c1=O (stereo not drawn)", "active"),
    ("C=CCN(C(=O)OCc1ccc([N+](=O)[O-])cc1)C1CCN(CC[C@](C)(CN(C)S(=O)(=O)c2ccccc2)c2ccccc2)CC1", "inactive"),
    ("COc1ccc(CNC(=O)C2CCN([C@H](C)c3cccc4ccccc34)CC2)cc1", "inactive"),
    ("CN1C(=O)C(c2ccccc2)C(=O)N(c2ccccc2)c2cc(C(F)(F)F)ccc21 (stereo not drawn)", "inactive"),
]

Challenge: Per the assay record, what outcome was assigned to O=C(NCCN1CCCCC1)c1cccc(C(F)(F)F)c1 ?
Response given: inactive

Challenge: Per the assay record, what outcome was assigned to CC(C)Oc1cccc(NC(=O)c2ccccc2C(F)(F)F)c1 ?
Response given: inactive
